assay-info: Antioxidant activity assessed as DPPH radical scavenging activity at 0.5 mg/ml after 180 mins
Type: physicochemical
recorded-conditions: 3 h
Label Not satisfied if inhibition (INH) falls below 20%; label Satisfied in every other case.

Past entries and their recorded results:
line-notation | assigned-label
N#C[Se]c1ccc(NC(=O)OCc2ccccc2)cc1 | Not satisfied
COc1ccc(OC(=O)Nc2ccc([Se][Se]c3ccc(NC(=O)Oc4ccc(OC)cc4)cc3)cc2)cc1 | Satisfied
CCCCOC(=O)Nc1ccc([Se]C#N)cc1 | Not satisfied

Incoming: Could you verify whether the entry N#C[Se]c1ccc(NC(=O)Oc2ccccc2)cc1 shows inhibition (INH) of no less than 20%?
Outgoing: Not satisfied

Incoming: Could you verify whether the entry CCOC(=O)Nc1ccc([Se][Se]c2ccc(NC(=O)OCC)cc2)cc1 shows inhibition (INH) of no less than 20%?
Outgoing: Satisfied

Incoming: Could you verify whether the entry CCOC(=O)Nc1ccc([Se]C#N)cc1 shows inhibition (INH) of no less than 20%?
Outgoing: Satisfied

Incoming: Could you verify whether the entry C=CCOC(=O)Nc1ccc([Se][Se]c2ccc(NC(=O)OCC=C)cc2)cc1 shows inhibition (INH) of no less than 20%?
Outgoing: Satisfied

---

Test system: CCRF-CEM
assay-info: Cytotoxicity against human CCRF-CEM cells after 72 hrs by MTT assay
Type: functional
# GI50 listing for each entry below
Value expressed in µM; do not type the unit.

Answered cases to consult:
compound | test-target | units | GI50
N#C[Se]c1ccc(NC(=O)OCc2ccc([N+](=O)[O-])cc2)cc1 | CCRF-CEM | µM | 9.3
N#C[Se]c1ccc(NC(=O)Oc2ccc(Cl)cc2)cc1 | CCRF-CEM | µM | 18.3
COc1cc([C@@H]2c3cc4c(cc3[C@@H](O[C@@H]3O[C@@H]5CO[C@@H](C)O[C@H]5[C@H](O)[C@H]3O)[C@H]3COC(=O)[C@H]23)OCO4)cc(OC)c1O [ETOPOSIDE] | CCRF-CEM | µM | 1.6

Incoming: What is its GI50 for CCRF-CEM? Entry: COc1ccc(OC(=O)Nc2ccc([Se][Se]c3ccc(NC(=O)Oc4ccc(OC)cc4)cc3)cc2)cc1
Outgoing: 5.3

Incoming: What is its GI50 for CCRF-CEM? Entry: O=C(Nc1ccc([Se][Se]c2ccc(NC(=O)Oc3ccc(F)cc3)cc2)cc1)Oc1ccc(F)cc1
Outgoing: 8.7

Incoming: What is its GI50 for CCRF-CEM? Entry: N#C[Se]c1ccc(NC(=O)OCC2c3ccccc3-c3ccccc32)cc1
Outgoing: 7.5

Incoming: What is its GI50 for CCRF-CEM? Entry: O=C(Nc1ccc([Se][Se]c2ccc(NC(=O)OCc3ccc([N+](=O)[O-])cc3)cc2)cc1)OCc1ccc([N+](=O)[O-])cc1
Outgoing: 8.6

---

assay-info: Cytotoxicity against human 184B5 cells after 72 hrs by MTT assay
Format: cell-based
recorded-conditions: 184b5, 72 h
Note to self: LC50 under 60 µM means true, ties and anything higher get false.

Incoming: Does CCCOC(=O)Nc1ccc([Se]C#N)cc1 have LC50 strictly under 60 µM?
Outgoing: true

Incoming: Does CCCCOC(=O)Nc1ccc([Se][Se]c2ccc(NC(=O)OCCCC)cc2)cc1 have LC50 strictly under 60 µM?
Outgoing: false

Incoming: Does Cc1ccc(OC(=O)Nc2ccc([Se]C#N)cc2)cc1 have LC50 strictly under 60 µM?
Outgoing: true

Incoming: Does CCCCCCOC(=O)Nc1ccc([Se][Se]c2ccc(NC(=O)OCCCCCC)cc2)cc1 have LC50 strictly under 60 µM?
Outgoing: true

Incoming: Does CCCOC(=O)Nc1ccc([Se][Se]c2ccc(NC(=O)OCCC)cc2)cc1 have LC50 strictly under 60 µM?
Outgoing: false
